Each recorded value in this set is attributed to patent US12559464B2.

Test system: myosin ATPase, Porcine Atria myofibrils
Assay: Myofibril ATPase assay, porcine atria myofibrils
Assay type: biochemical
Conditions: concentration required to reduce myosin ATP-ase activity by 25%; Porcine Atria Prep pCa 25 GEOM_MEAN
measuredMetric: Porcine Atria EC25 (Y75 value) (µM)

(a) C[C@H](NC(=O)Cn1c(=O)[nH]c2ccc(F)cc2c1=O)c1ccc(F)cc1F
(b) O=C(Cn1c(=O)[nH]c2ccncc2c1=O)N[C@H]1CCc2cc(F)cc(F)c21 (single isomer, unassigned)
Would you kindly point out which of a and b has the smaller Porcine Atria EC25 (Y75 value) figure? Respond using the label that marks the chosen record.
a

(a) C[C@H](NC(=O)[C@@H](C)n1c(=O)[nH]c2cccc(O)c2c1=O)c1ccc(F)cc1F (single isomer, unassigned)
(b) Cc1nn(C)cc1C(C)NC(=O)Cn1c(=O)[nH]c2ccccc2c1=O (stereo not shown)
Which has the higher Porcine Atria EC25 (Y75 value), a or b ? Respond using the label that marks the chosen record.
b
(b: 100 µM, a: 0.0803 µM)

---

System: myosin ATPase, Rabbit Psoas myofibrils
Assay: Myofibril ATPase assay, rabbit psoas (skeletal) myofibrils
Format: biochemical
Conditions: concentration required to reduce myosin ATP-ase activity by 25%; Rabbit Psoas Prep pCa 25 GEOM_MEAN
measuredMetric: Rabbit Psoas EC25 (Y75 value) (µM)

Here is how some compounds turned out for Rabbit Psoas EC25 (Y75 value).
{"compound": "C[C@@H](NC(=O)Cn1c(=O)[nH]c2ccc(F)cc2c1=O)c1ncc(C#N)cc1F (single isomer, unassigned)", "unitsLabel": "µM", "Rabbit Psoas EC25 (Y75 value)": 5.692}
{"compound": "C[C@H](NC(=O)Cn1c(=O)[nH]c2ncccc2c1=O)c1ccc(F)cc1F", "unitsLabel": "µM", "Rabbit Psoas EC25 (Y75 value)": 100}
{"compound": "C[C@H](NC(=O)Cn1c(=O)[nH]c2ccc(C#N)cc2c1=O)c1ncc(C#N)cc1F (single isomer, unassigned)", "unitsLabel": "µM", "Rabbit Psoas EC25 (Y75 value)": 5.743}
{"compound": "O=C(Cn1c(=O)[nH]c2ccccc2c1=O)NC1CNC(=O)c2cc(F)cc(F)c21 (stereo not drawn)", "unitsLabel": "µM", "Rabbit Psoas EC25 (Y75 value)": 100}

(1) Cc1c(F)ccc2[nH]c(=O)n(CC(=O)N[C@H](C)c3ccc(C#N)cn3)c(=O)c12 (single isomer, unassigned)
(2) CC(NC(=O)Cn1c(=O)[nH]c2ccccc2c1=O)c1cc(F)ccc1F (stereo not drawn)
(3) CC(NC(=O)Cn1c(=O)[nH]c2ccccc2c1=O)C1CN(C)CCO1 (stereo not drawn)
(4) C[C@H](NC(=O)Cn1c(=O)[nH]c2ccc(F)c(F)c2c1=O)c1ccc(C#N)cn1 (single isomer, unassigned)
(5) C[C@H](NC(=O)Cn1c(=O)[nH]c2cccnc2c1=O)c1ccc(F)cc1F
Your job: order these 5 records by Rabbit Psoas EC25 (Y75 value), ascending. // rank by listing labels in the order requested
1, 4, 2, 5, 3

(1) CC(NC(=O)Cn1c(=O)[nH]c2ccccc2c1=O)C1CCCC1 (stereo not drawn)
(2) Cc1nccc2[nH]c(=O)n(CC(=O)N[C@@H](C)c3ncc(C#N)cc3F)c(=O)c12
(3) C[C@H](NC(=O)[C@H](C)n1c(=O)[nH]c2cccc(O)c2c1=O)c1ccc(F)cc1F (single isomer, unassigned)
Rank entries according to their Rabbit Psoas EC25 (Y75 value), from the largest number down. // rank by listing labels in the order requested
1, 2, 3
